Reference for the values: patent US10189836B2

measuredTarget: isolated recombinant JAK2 kinase domain (Homo sapiens (Human))
Sequence (O60674 849-1124): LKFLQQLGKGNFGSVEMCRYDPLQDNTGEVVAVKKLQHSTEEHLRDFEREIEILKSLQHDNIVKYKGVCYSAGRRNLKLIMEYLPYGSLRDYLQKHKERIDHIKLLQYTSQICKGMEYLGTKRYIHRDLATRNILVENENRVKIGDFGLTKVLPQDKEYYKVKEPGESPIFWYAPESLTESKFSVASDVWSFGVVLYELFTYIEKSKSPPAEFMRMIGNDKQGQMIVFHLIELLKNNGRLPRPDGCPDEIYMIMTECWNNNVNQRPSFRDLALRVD
assayProtocol: JAK2 enzyme assay (Caliper LabChip, Ki)
Type: biochemical
experimentalSetup: isolated recombinant JAK2 kinase domain, 0.2 nM enzyme, ATP 25 μM
measuredMetric: pKi
# log scale: pKi equals minus log10 of the concentration in mol/L

Solved entries:
CN1CCN(C(=O)Cn2cc(Nc3nc4c(N5CC6CCC(C5)N6C(=O)C5CCSCC5)cccn4n3)cn2)CC1	8.28
CN1CCN(C(=O)Cn2cc(Nc3nc4c(N5CC6CCC(C5)N6C(=O)C(C)(C)CC(F)(F)F)cccn4n3)cn2)CC1	8.74
CN1CCN(C(=O)Cn2cc(Nc3nc4c(N5CC6CCC(C5)N6C(=O)C5CC6CCC5O6)cccn4n3)cn2)CC1 (stereo not shown)	8.55

Here is the next item to consider.
So, CC(C(=O)N1CCN(C)CC1)n1cc(Nc2nc3c(N4CC5CCCC(C4)N5C(=O)CCC(F)(F)F)cccn3n2)cn1 (stereo not shown) [Example 105] ? Its pKi was 9.10
